- Test system: Plasmodium Falciparum W2 Strain (Chloroquine resistant)
- Run Description: In vitro screening against Plasmodium falciparum, radiolabelled hypoxanthine incorporation, W2 strain
- Type: cell-based
- Settings: Plasmodium falciparum, W2, 66 h, read-out: In vitro activity: IC90, W2 Strain (Chloroquine resistant); 66 hours incubation; Albumax medium
Result Type: IC90 (µg/mL)

compound="C[C@H]1[C@@H](OCc2cccc3c2ccc2ccccc23)O[C@@H]2O[C@@]3(C)CC[C@H]4[C@H](C)CC[C@@H]1[C@@]24OO3 [Example 13]" units_of_measure=µg/mL number=0.00079
compound="C[C@H]1[C@@H](Oc2ccnc3cc(C(F)(F)F)ccc23)O[C@@H]2O[C@@]3(C)CC[C@H]4[C@H](C)CC[C@@H]1[C@@]24OO3 [Example 2]" units_of_measure=µg/mL number=0.00081
compound="C[C@H]1[C@@H](OCc2ccc3ccc4cccc5ccc2c3c45)O[C@@H]2O[C@@]3(C)CC[C@H]4[C@H](C)CC[C@@H]1[C@@]24OO3 [Example 14]" units_of_measure=µg/mL number=0.0249
compound="C[C@H]1[C@@H](OCc2c3ccccc3cc3ccccc23)O[C@@H]2O[C@@]3(C)CC[C@H]4[C@H](C)CC[C@@H]1[C@@]24OO3 [Example 12]" units_of_measure=µg/mL number=0.173
